system: PANC-1 complex spheroid growth, percent test/control; assay: Anticancer human tumor PANC-1 cell line growth inhibition [Asc]; details: second compound 0.01 µM; first compound 0.316 µM; active compounds read low;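 further: spheroids exposed to agents for 7 days; percent viability relative to DMSO vehicle wells taken as 100%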
endpoint.label: viability, T/C

Please review the entries below; each comes with its answer.
{"molecule": "C=C(F)C(=O)N1CCN(c2nc(OCC3CCCN3C)nc3c2CCN(c2cccc4cccc(Cl)c24)C3)CC1CC#N (centres undefined) + CNC(C)C(=O)NC1CN(S(=O)(=O)c2cccc(S(=O)(=O)N3CCC4CCC(C(=O)NC(c5ccccc5)c5ccccc5)N4C(=O)C(NC(=O)C(C)NC)C3)c2)CCC2CCC(C(=O)NC(c3ccccc3)c3ccccc3)N2C1=O", "target": "PANC-1 complex spheroid growth, percent test/control", "viability, T/C": "92.4%"}
{"molecule": "C#Cc1c(F)ccc2cc(O)cc(-c3ncc4c(N5CC6CCC(C5)N6)nc(OCC56CCCN5CC(F)C6)nc4c3F)c12 (centres undefined) + CNC(C)C(=O)NC1CN(S(=O)(=O)c2cccc(S(=O)(=O)N3CCC4CCC(C(=O)NC(c5ccccc5)c5ccccc5)N4C(=O)C(NC(=O)C(C)NC)C3)c2)CCC2CCC(C(=O)NC(c3ccccc3)c3ccccc3)N2C1=O", "target": "PANC-1 complex spheroid growth, percent test/control", "viability, T/C": "89.2%"}

Record viability, T/C per entry; entries follow.
1. O=C(c1ccc(F)c(F)c1Nc1ccc(I)cc1F)N1CC(O)([C@@H]2CCCCN2)C1 + CNC(C)C(=O)NC1CN(S(=O)(=O)c2cccc(S(=O)(=O)N3CCC4CCC(C(=O)NC(c5ccccc5)c5ccccc5)N4C(=O)C(NC(=O)C(C)NC)C3)c2)CCC2CCC(C(=O)NC(c3ccccc3)c3ccccc3)N2C1=O
2. CCN1CCN(Cc2ccc(Nc3ncc(F)c(-c4cc(F)c5nc(C)n(C(C)C)c5c4)n3)nc2)CC1 + CNC(C)C(=O)NC1CN(S(=O)(=O)c2cccc(S(=O)(=O)N3CCC4CCC(C(=O)NC(c5ccccc5)c5ccccc5)N4C(=O)C(NC(=O)C(C)NC)C3)c2)CCC2CCC(C(=O)NC(c3ccccc3)c3ccccc3)N2C1=O

["85.9%", "124%"]
